Tested on: A549/WT wild type human lung adenocarcinoma cell line
Assay: Cell growth assay (SRB) in A549/WT
Format: cell-based
Settings: A549/WT; 4-N-acyl and 4-N-phosphoryl derivatives (Table 5)
Note to self: values exactly at 10 are Met. So Ratio of IC50 in the presence of dipyridamole / IC50 in the absence of dipyridamole at or above 10 is Met, below is Not met.

{"Compound": "O=C(Nc1ccn(C2OC(CO)C(O)C2(F)F)c(=O)n1)OCCl (centres unmarked)", "Discrete Label": "Not met"}
{"Compound": "C#CCOC(=O)Nc1ccn(C2OC(CO)C(O)C2(F)F)c(=O)n1 (centres unmarked)", "Discrete Label": "Met"}
{"Compound": "CCOC(=O)Nc1ccn(C2OC(CO)C(O)C2(F)F)c(=O)n1 (centres unmarked) [Derivative 1, Ethyl-(4-N-Gemcitabine) carbamate]", "Discrete Label": "Met"}
{"Compound": "O=C1OCCN1c1ccn(C2OC(CO)C(O)C2(F)F)c(=O)n1 (centres unmarked)", "Discrete Label": "Met"}
{"Compound": "Nc1ccn([C@@H]2O[C@H](CO)[C@@H](O)C2(F)F)c(=O)n1 [Gemcitabine, 2′,2′-difluoro-2′-deoxycytidine, reference compound]", "Discrete Label": "Met"}

Dear colleague, could you confirm whether CC(C)COC(=O)Nc1ccn(C2OC(CO)C(O)C2(F)F)c(=O)n1 (centres unmarked) has Ratio of IC50 in the presence of dipyridamole / IC50 in the absence of dipyridamole at or above 10?
Met

Dear colleague, could you confirm whether O=C(Nc1ccn(C2OC(CO)C(O)C2(F)F)c(=O)n1)OCCCl (centres unmarked) has Ratio of IC50 in the presence of dipyridamole / IC50 in the absence of dipyridamole at or above 10?
Met

Dear colleague, could you confirm whether COc1cc(COC(=O)Nc2ccn(C3OC(CO)C(O)C3(F)F)c(=O)n2)c([N+](=O)[O-])cc1OC (centres unmarked) has Ratio of IC50 in the presence of dipyridamole / IC50 in the absence of dipyridamole at or above 10?
Met

Dear colleague, could you confirm whether CC(COC(=O)Nc1ccn(C2OC(CO)C(O)C2(F)F)c(=O)n1)c1ccccc1[N+](=O)[O-] (centres unmarked) has Ratio of IC50 in the presence of dipyridamole / IC50 in the absence of dipyridamole at or above 10?
Met

Dear colleague, could you confirm whether O=C(Nc1ccn(C2OC(CO)C(O)C2(F)F)c(=O)n1)OCc1cn(C2=CC3C=CC(O)=CC3OC2=O)nn1 (centres unmarked) has Ratio of IC50 in the presence of dipyridamole / IC50 in the absence of dipyridamole at or above 10?
Met

Dear colleague, could you confirm whether CCCCOC(=O)Nc1ccn(C2OC(CO)C(O)C2(F)F)c(=O)n1 (centres unmarked) has Ratio of IC50 in the presence of dipyridamole / IC50 in the absence of dipyridamole at or above 10?
Not met

----------
Test system: PANC-01 human pancreatic cancer cell line
Experiment: Cell growth assay (SRB) in PANC-01
Type: cell-based
Conditions: 4-N-acyl and 4-N-phosphoryl derivatives (Table 5)
Reported values of Ratio of IC50 in the presence of dipyridamole / IC50 in the absence of dipyridamole for individual entries
Response field accepts a number only; no unit should be typed.

What does the record list as Ratio of IC50 in the presence of dipyridamole / IC50 in the absence of dipyridamole for O=C(Nc1ccn(C2OC(CO)C(O)C2(F)F)c(=O)n1)OCCl (centres unmarked) ?
22

What does the record list as Ratio of IC50 in the presence of dipyridamole / IC50 in the absence of dipyridamole for O=C(Nc1ccn(C2OC(CO)C(O)C2(F)F)c(=O)n1)OCCCl (centres unmarked) ?
0.6
